Taken from ChEMBL document CHEMBL3507680.

cytotoxicity at 70.5 h by entry:
- testMethodNotes: Human HepG2 cell viability assay in 384 well format
- Assay type: toxicity, cell-based
- Parameters: dose 125 nL, time 70.5 hour; concentration not given beside the values
- conditionParameters: HepG2 cells, read-out: Inhibition

# molecule, unitAbbrev, cytotoxicity at 70.5 h
data = [
    ("COC(=O)CCN(C)C(=O)c1csc(Cc2ccccc2F)n1", "%", 0.501),
    ("CC1=N[C@@]2(CC[C@@H]3CN(CC(=O)N(C)C)C[C@@H]32)C(=O)N1CC1CC1", "%", -2.19),
    ("COc1ncccc1CNC(=O)c1cnccn1", "%", -12.4),
    ("N#CC1(C(=O)N2C[C@H]3CC[C@@H]2CN(Cc2cscn2)C3)CCOCC1", "%", 15.7),
    ("c1cnc(N2CCCC(Cc3nccs3)C2)nc1 (centres undefined)", "%", -3.8),
    ("Cc1cnn(CC(C)NCc2nc(-c3cccs3)no2)c1 (centres undefined)", "%", -7.53),
    ("CC(C)C(NC(=O)N1CCS(=O)(=O)CC1)c1ccccc1Cl (centres undefined)", "%", -5.93),
    ("CN(CC(=O)Nc1nc2c(s1)CCCCCC2)C(=O)c1ccco1", "%", -17.3),
    ("COc1cc(C(N)=O)c(N(C)S(C)(=O)=O)cc1OC", "%", -9.06),
    ("CCCS(=O)(=O)N1CCC(NC(=O)c2ccc(Cl)s2)CC1", "%", -11.6),
    ("CC(Cn1cccn1)NCc1csc(Cc2ccccc2)n1 (centres undefined)", "%", 0.563),
    ("Cn1ccc(N2CCCC(NC(=O)c3ccsc3)C2=O)n1 (centres undefined)", "%", 20.9),
    ("CCCNC(=O)C(C)Nc1ccc(COCC)cc1 (centres undefined)", "%", -0.943),
    ("CCn1cc(C(=O)NCc2ccc3c(c2)OCO3)c(C)n1", "%", -1.15),
    ("Cn1cnnc1S(=O)(=O)C1CCN(S(=O)(=O)c2ccc(Cl)s2)CC1", "%", 11.9),
    ("C[C@@H]1CN(c2ccc(Cl)cn2)CC[C@@]1(O)C1CCOCC1", "%", -1.93),
    ("COc1ccc(-n2cnnc2SCC(=O)NC(C)C)cn1", "%", -3.19),
    ("COc1ccc(NC(C)C(=O)N2CCN(Cc3ccccc3)CC2)cn1 (centres undefined)", "%", -10),
    ("CC1COc2ccccc2N1C(=O)c1cscn1 (centres undefined)", "%", -9.82),
    ("O=C(C1=COCCO1)N1CC(Oc2nc3c(Cl)cccc3s2)C1", "%", 30.4),
    ("CCc1c(C(=O)N2CCN(CC(N)=O)CC2)cnn1C(C)(C)C", "%", -2.02),
    ("Cc1nc([C@@H]2C[C@@H]3CCN(C(=O)Cc4ccsc4)C[C@H]3O2)no1", "%", -13.8),
    ("Cn1cc(C(=O)NC2CCN(C(=O)NCCSC(F)(F)F)CC2)cn1", "%", -1.82),
    ("Cc1nn(CCCNC(=O)C2CCN(S(C)(=O)=O)CC2)cc1Br", "%", -4.82),
]

---

- testMethodNotes: Human HepG2 cell viability assay in 384 well format
- Assay type: toxicity, cell-based
- Set-up: dose 125 nL, time 70.5 hour; concentration not given beside the values
- conditionParameters: HepG2 cells, read-out: Inhibition
cytotoxicity at 70.5 h by entry:

# compound, unitAbbrev, cytotoxicity at 70.5 h
data = [
    ("c1cncc(COCC2CN(Cc3ccco3)Cc3nccn3C2)c1 (stereo unspecified)", "%", -9.74),
    ("CCCS(=O)(=O)N1CCC2(CCC(=O)N(CCc3ccncc3)C2)CC1", "%", -9.81),
    ("c1cnc2c(c1)cc([C@H]1CCCO1)n2CCN1CCCC1", "%", -1.04),
    ("Cc1cc(C(=O)N2CC[C@@]3(O)CCN(S(C)(=O)=O)C[C@H]3C2)c(C)n1C", "%", 18.6),
    ("Cc1ccc2nc(CN3CCCCC3CCn3cccn3)cn2c1 (stereo unspecified)", "%", 6.68),
    ("CCn1c(CN2CCN(CCOC)CC2)nc2c(F)cccc21", "%", 2.86),
]
